# ASSAY_NOTES: Particle size by laser diffraction method (Microtrac MT3000)
# Type: physicochemical
# APPLIED_CONDITIONS: dispersion medium: water
The compounds listed here are annotated with their D50.

Consider the reported D50 for these compounds:
COMPOUND	ASSAY_METRIC	RESULT
N#C/C(=C1/SC[C@@H](c2ccc(Cl)cc2Cl)S1)n1ccnc1 [7-minute ground luliconazole, luliconazole]	D50	84.7 μm
N#C/C(=C1/SC[C@@H](c2ccc(Cl)cc2Cl)S1)n1ccnc1 [5-minute ground luliconazole, luliconazole]	D50	114.4 μm
N#C/C(=C1/SC[C@@H](c2ccc(Cl)cc2Cl)S1)n1ccnc1 [6-minute ground luliconazole, luliconazole]	D50	96.6 μm

Now for a further compound.
Need D50 of N#C/C(=C1/SC[C@@H](c2ccc(Cl)cc2Cl)S1)n1ccnc1 [8-minute ground luliconazole, luliconazole] , thanks.
78.5 μm

----------
# Test system: Tritrichomonas mobilensis
# ASSAY_NOTES: Anti-Tritrichomonas activity of solid ground luliconazole (viable count, growth inhibition rate)
# Type: cell-based
# APPLIED_CONDITIONS: 5 mg solid in 5 mL medium, 10,000 cells, 35° C., 24 hours; [(control-sample)/control]×100
# Procedure: It is noted that the growth inhibition rate is calculated as follows: [(the number of viable cells of the control group−the number of viable cells of the sample group)/the number of viable cells of the control group]×100. It is preferred that the anti-Tritrichomonas effect is determined 24 to 72 hours after the inoculation of 10,000 cells of Tritrichomonas protozoa on 5 mL of liquid medium in which 5 mg of sample luliconazole is added. […]
ASSAY_METRIC: Growth Inhibition Rate
Answer with the value's number alone.

Need Growth Inhibition Rate of N#C/C(=C1/SC[C@@H](c2ccc(Cl)cc2Cl)S1)n1ccnc1 [8-minute ground luliconazole, luliconazole] , thanks.
84.9

Need Growth Inhibition Rate of N#C/C(=C1/SC[C@@H](c2ccc(Cl)cc2Cl)S1)n1ccnc1 [5-minute ground luliconazole, luliconazole] , thanks.
75.5

Need Growth Inhibition Rate of N#C/C(=C1/SC[C@@H](c2ccc(Cl)cc2Cl)S1)n1ccnc1 [6-minute ground luliconazole, luliconazole] , thanks.
88.7

Need Growth Inhibition Rate of N#C/C(=C1/SC[C@@H](c2ccc(Cl)cc2Cl)S1)n1ccnc1 [7-minute ground luliconazole, luliconazole] , thanks.
88.7
